Target: recombinant human heparanase (Homo sapiens, UniProt Q9Y251)
Sequence (Q9Y251 158-543 limits assumed): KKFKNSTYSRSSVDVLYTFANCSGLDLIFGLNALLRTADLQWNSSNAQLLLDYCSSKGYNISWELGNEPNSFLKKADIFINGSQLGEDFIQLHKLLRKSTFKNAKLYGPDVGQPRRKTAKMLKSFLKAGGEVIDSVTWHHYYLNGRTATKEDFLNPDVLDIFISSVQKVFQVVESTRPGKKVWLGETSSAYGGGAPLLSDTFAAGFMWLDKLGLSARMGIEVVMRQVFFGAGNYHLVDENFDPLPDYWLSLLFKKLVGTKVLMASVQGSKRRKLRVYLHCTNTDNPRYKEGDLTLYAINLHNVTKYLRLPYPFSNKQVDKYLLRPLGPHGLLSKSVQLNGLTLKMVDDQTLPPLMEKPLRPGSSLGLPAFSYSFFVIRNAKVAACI
Sequence (Q9Y251 36-109 limits assumed): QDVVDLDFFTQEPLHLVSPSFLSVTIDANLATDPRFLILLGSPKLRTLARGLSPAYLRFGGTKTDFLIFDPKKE
Test: Heparanase inhibition assay (fondaparinux cleavage, WST-1)
Conditions: read-out: Ki Heparanase; IC50 converted into Ki; fondaparinux 100 μM, pH 5.0
metric: pKi
Answers are plain numbers, as −log10 of the molar value.

// pKi value for CC(C)CCC[C@@H](C)[C@H]1CC[C@H]2[C@@H]3CC[C@H]4C[C@@H](O[C@H]5O[C@H](COS(=O)(=O)O)[C@@H](OS(=O)(=O)O)[C@H](OS(=O)(=O)O)[C@@H]5OS(=O)(=O)O)CC[C@]4(C)[C@H]3CC[C@]12C : 6.95

Each recorded value in this set is attributed to patent US20150065440A1.
